Data origin: patent US12060387B2

Test Description: Cell viability (%) by flow cytometry
Type: cell-based
Reported Conditions: mouse, HT2 cells, Protocol C, shuttle 5 μM, GFP-NLS 5 μM, 15 seconds, read-out: Cell viability (%) (±St. Dev.; n = 3)
Experimental: The ability of the shuttle agent His-CM18-PTD4 to deliver GFP-NLS to the nuclei of different adherent and suspension cells using Protocols B (adherent cells) or C (suspension cells) as described in Example 9.1 was examined. The cell lines tested included: HeLa, Balb3T3, HEK 293T, CHO, NIH3T3, Myoblasts, Jurkat, THP-1, CA46, and HT2 cells, which were cultured as described in Example 1. […]
Where no end group is shown, it is not given here.
Reported Metric: viability at 15 s, 5 µM

Lookup: Any idea what viability at 15 s, 5 µM was measured for HHHHHHKWKLFKKIGAVLKVLTTGYARAAARQARA [His-CM18-PTD4] ?
Found: 90.6%

====

Test Description: Cell toxicity / % cell viability by flow cytometry (cells in total events v. untreated)
Format: cell-based, Human
Reported Conditions: human, HeLa cells; HeLa; Protocol B; shuttle 10 μM; GFP-NLS 5 μM; incubation 5 min; read-out: Cell viability (%) (±St. Dev.; n = 3), FIG. 29B
Where no end group is shown, it is not given here.
Reported Metric: viability at 5 min, 10 µM (%)
Answer with a number only, understood to be in %.

Lookup: Any idea what viability at 5 min, 10 µM was measured for YGRKKRRQRRRCWEAKLAKALAKALAKHLAKALAKALKACEA (cysteines drawn unpaired) [TAT-KALA] ?
Found: 86

====

Test Description: Cell toxicity / % cell viability by flow cytometry (cells in total events v. untreated)
Assay type: cell-based, Human
Reported Conditions: human, HeLa cells, Cell viability (%) (±St. Dev.; n = 3), FIG. 22B; HeLa; Protocol B; shuttle 50 μM; GFP-NLS 5 μM; 10 seconds; read-out: Cell viability (%) (±St. Dev.; n = 3), FIG. 22B
Where no end group is shown, it is not given here.
Reported Metric: viability at 10 s, 50 µM (%)
Answer with a number only, understood to be in %.

Lookup: Any idea what viability at 10 s, 50 µM was measured for HHHHHHKWKLFKKIGAVLKVLTTGYARAAARQARA [His-CM18-PTD4] ?
Found: 69.2

====

Test Description: Cell toxicity / % cell viability by flow cytometry (cells in total events v. untreated)
Format: cell-based, human
Reported Conditions: human, THP-1 cells, THP-1; Protocol C; shuttle 1 μM; GFP-NLS 5 μM; incubation time 60 sec; read-out: Cell viability (%) (±St. Dev.; n = 3)
Where no end group is shown, it is not given here.
Reported Metric: viability at 1 min, 1 µM
Reply with the number, then its unit.

Lookup: Any idea what viability at 1 min, 1 µM was measured for YGRKKRRQRRRCWEAKLAKALAKALAKHLAKALAKALKACEA (cysteines drawn unpaired) [TAT-KALA] ?
Found: 82.7%

====

Test Description: Cell toxicity / % cell viability by flow cytometry (cells in total events v. untreated)
Format: cell-based, Human
Reported Conditions: human, HeLa cells; HeLa; Protocol B; shuttle 10 μM; GFP-NLS 5 μM; incubation 2 min; read-out: Cell viability (%) (±St. Dev.; n = 3), FIG. 29B
Where no end group is shown, it is not given here.
Reported Metric: viability at 2 min, 10 µM (%)
Answer with a number only, understood to be in %.

Lookup: Any idea what viability at 2 min, 10 µM was measured for YGRKKRRQRRRCWEAKLAKALAKALAKHLAKALAKALKACEA (cysteines drawn unpaired) [TAT-KALA] ?
Found: 92.1

====

Test Description: Cell toxicity / % cell viability by flow cytometry (cells in total events v. untreated)
Format: cell-based, Human
Reported Conditions: human, HeLa cells, Cell viability (%) (± St. Dev.; n = 3); HeLa; Protocol B; shuttle 35 μM; GFP-NLS 5 μM; 10 seconds; read-out: Cell viability (%) (± St. Dev.; n = 3)
Where no end group is shown, it is not given here.
Reported Metric: viability at 10 s, 35 µM (%)
Answer with a number only, understood to be in %.

Lookup: Any idea what viability at 10 s, 35 µM was measured for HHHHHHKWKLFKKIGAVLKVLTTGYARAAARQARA [His-CM18-PTD4] ?
Found: 94.6

====

Test Description: Cell toxicity / % cell viability by flow cytometry (cells in total events v. untreated)
Format: cell-based, Human
Reported Conditions: human, HeLa cells, Cell viability (%) (±St. Dev.; n = 3), FIG. 6B; HeLa; GFP 5 μM; shuttle 1 μM; 1 hour; read-out: Cell viability (%) (±St. Dev.; n = 3), FIG. 6B
Where no end group is shown, it is not given here.
Reported Metric: viability at 1 h, 1 µM
Reply with the number, then its unit.

Lookup: Any idea what viability at 1 h, 1 µM was measured for KWKLFKKIGAVLKVLTTGYGRKKRRQRRRC [CM18-TAT-Cys] ?
Found: 90%

====

Test Description: Cell toxicity / % cell viability by flow cytometry (cells in total events v. untreated)
Format: cell-based, Human
Reported Conditions: human, HeLa cells, Cell viability (%) (±St. Dev.; n = 3), FIG. 22B; HeLa; Protocol B; shuttle 10 μM; GFP-NLS 5 μM; 10 seconds
Where no end group is shown, it is not given here.
Reported Metric: viability at 10 s, 10 µM (%)
Answer with a number only, understood to be in %.

Lookup: Any idea what viability at 10 s, 10 µM was measured for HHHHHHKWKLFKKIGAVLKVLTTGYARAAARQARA [His-CM18-PTD4] ?
Found: 96.3

====

Test Description: Cell toxicity / % cell viability by flow cytometry (cells in total events v. untreated)
Assay type: cell-based, human
Reported Conditions: human, THP-1 cells, Cell viability (%) (±St. Dev.; n = 3), FIG. 31; THP-1; Protocol A; shuttle 1 μM; GFP-NLS 5 μM; 1 hour
Where no end group is shown, it is not given here.
Reported Metric: viability at 1 h, 1 µM

Lookup: Any idea what viability at 1 h, 1 µM was measured for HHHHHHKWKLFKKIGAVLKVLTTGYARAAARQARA [His-CM18-PTD4] ?
Found: 96.9%

====

Test Description: Cell viability (%) by flow cytometry
Format: cell-based
Reported Conditions: mouse, NIH3T3 cells, Protocol B, shuttle 35 μM, GFP-NLS 5 μM, 10 seconds, read-out: Cell viability (%) (±St. Dev.; n = 3)
Where no end group is shown, it is not given here.
Reported Metric: viability at 10 s, 35 µM (%)
Answer with a number only, understood to be in %.

Lookup: Any idea what viability at 10 s, 35 µM was measured for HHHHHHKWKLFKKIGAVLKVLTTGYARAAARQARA [His-CM18-PTD4] ?
Found: 3.3

====

Test Description: Cell toxicity / % cell viability by flow cytometry (cells in total events v. untreated)
Format: cell-based, human
Reported Conditions: human, THP-1 cells, Cell viability (%) (±St. Dev.; n = 3); THP-1; Protocol C; shuttle 1 μM; GFP-NLS 5 μM; incubation time 60 sec; read-out: Cell viability (%) (±St. Dev.; n = 3)
Where no end group is shown, it is not given here.
Reported Metric: viability at 1 min, 1 µM

Lookup: Any idea what viability at 1 min, 1 µM was measured for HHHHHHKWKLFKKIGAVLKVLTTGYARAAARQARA [His-CM18-PTD4] ?
Found: 85.3%

====

Test Description: Cell toxicity / % cell viability by flow cytometry (cells in total events v. untreated)
Type: cell-based, human
Reported Conditions: human, THP-1 cells, Cell viability (%) (±St. Dev.; n = 3), FIG. 31; THP-1; Protocol C; shuttle 0.5 μM; GFP-NLS 5 μM
Where no end group is shown, it is not given here.
Reported Metric: viability at 0.5 µM (%)
Answer with a number only, understood to be in %.

Lookup: Any idea what viability at 0.5 µM was measured for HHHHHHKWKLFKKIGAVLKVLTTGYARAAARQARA [His-CM18-PTD4] ?
Found: 82.1

====

Let's look at some sequences and their measured viability at 10 s, 50 µM.
Test Description: Cell toxicity / % cell viability by flow cytometry (cells in total events v. untreated)
Format: cell-based, Human
Reported Conditions: human, HeLa cells, Cell viability (%) (±St. Dev.; n = 3), FIG. 29F; read-out: Cell viability (%) (±St. Dev.; n = 3), FIG. 29F
Where no end group is shown, it is not given here.

[
  {
    "Residue String": "RRLSYSRRRFWEAKLAKALAKALAKHLAKALAKALKACEA [SynB3-KALA]",
    "Reported Metric": "viability at 10 s, 50 µM",
    "Result": "91.1%"
  }
]

Lookup: Any idea what viability at 10 s, 50 µM was measured for RRRRRRRRRWEAKLAKALAKALAKHLAKALAKALKACEA [9Arg-KALA] ?
Found: 62.8%
